Target: T1, PSGL-1 endogenously expressed on HL-60 cells (UniProt Q14242 42-412)
T1 construct: whole, on cells
T1 sequence (looked up): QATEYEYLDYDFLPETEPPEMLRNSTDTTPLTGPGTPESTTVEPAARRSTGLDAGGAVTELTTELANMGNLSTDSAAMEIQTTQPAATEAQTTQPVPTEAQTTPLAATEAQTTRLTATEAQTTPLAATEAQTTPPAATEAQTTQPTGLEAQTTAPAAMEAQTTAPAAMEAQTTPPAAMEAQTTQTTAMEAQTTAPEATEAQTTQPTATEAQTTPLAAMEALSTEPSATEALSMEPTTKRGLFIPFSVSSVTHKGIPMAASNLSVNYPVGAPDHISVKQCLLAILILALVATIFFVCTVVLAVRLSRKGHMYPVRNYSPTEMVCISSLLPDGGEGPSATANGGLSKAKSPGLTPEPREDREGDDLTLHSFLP
Assay: flow cytometry on HL-60 cells
Entries and their EC50

[[record]]
binder = "20I15.008 (antibody, IgG4, V domains shown, Humanised) VH: EVKLVESGGGLVQPGGSLRLSCAASGFTFTDYYMSWVRQAPGKGLEWLGFIRNKAQGYTTEYSASVKGRFTISRDNSQNSLYLQMNSLKTEDTAVYYCARTYLRRGYFDVWGQGTLVTVSS VL: DIVLTQSPSTLSASVGDRVTITCRASKSVSTSGYSYMHWFQQKPGKAPKLLIYLASNLESGVPSRFSGSGSGTDFTLTISSLQPDDFATYYCQHSRELPLTFGQGTKLEIK"
observed_measurement = "1.6 nM"


// below: EC50 requested for another binder
Form field: reported EC50 of 20I15.006 (antibody, IgG4, V domains shown, Humanised) VH: EVQLVESGGGLVQPGGSLRLSCAASGFTFTDYYMSWVRQAPGKGLEWLGFIRNKASGYTTEYSASVKGRFTISRDNSKNSLYLQMNSLKTEDTAVYYCARTYLRRGYFDVWGQGTLVTVSS VL: DIVLTQSPSTLSASVGDRVTITCRASKSVSTSGYSYMHWFQQKPGKAPKLLIYLASNLESGVPSRFSGSGSGTDFTLTISSLQPDDFATYYCQHSRELPLTFGQGTKLEIK
0.8 nM
